Exercise: for every item that follows, state its recorded z-score.
- Experimental details: P. aeruginosa biofilm formation inhibitors, primary screen, PAO1 strain, BacTiter-Glo luminescence, LB-PBS (AID 1144)
- Run parameters: 12 h, higher = more signal
Kindly provide the number alone.

input: Can you share its z-score? I mean this compound: CCOC(=O)[C@H](CC(C)C)NC(=O)CCC1CC(OC(=O)NCc2cccc3ccccc23)CC2(CCCC(COC(=O)NCCOc3ccccc3)O2)O1 (some centres undefined)
output: -0.477

input: If you can, please state the reported z-score value of COC(=O)[C@@H]1CC[C@H](C)[C@@H](c2ccc(C)cc2)N1C(=O)c1ccc(C=NOCC[C@@H]2C=C[C@H](OC(C)=O)[C@@H](COC(C)=O)O2)cc1 .
output: 0.637

input: Which value of z-score has been reported for Cc1cc2c(nc1C)CCCN2CC(O)CN1CCCc2nc(C)c(C)cc21 in the records?
output: 0.051

input: Name the reported z-score value associated with the compound O=C(C=Cc1ccc2c(c1)OCO2)c1ccc(F)cc1
output: 0.583

----------
For each of the compounds below, state its composite z-score.
- Experimental details: small-molecule binders of probe aNOTCH2, primary screen, biochemical, small-molecule microarray, 635/667 nm fluorescence (AID 1121);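 further: score merges feature fluorescence read at 667 nm with its signal to noise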
- Run parameters: higher = more signal
Respond numerically, and do not add a unit to the figure.

input: Which composite z-score is reported for this compound? O=C1C[C@@H](O)[C@@H](O)[C@@H]2[C@@H]3C(=O)N(Cc4ccccc4)C(=O)[C@@H]3CC[C@@H]12
output: -0.12

input: Need composite z-score of COC(=O)CC=C[C@@H](C)[C@@H](C=NOC[C@H]1O[C@H](c2ccccc2)C=C[C@@H]1Oc1ccc(OC)cc1)NS(=O)(=O)c1ccc(C)cc1 , thanks.
output: -0.138

input: Can you share its composite z-score? I mean this compound: CCOC(=O)CCN1C(=O)[C@H]2[C@H]3[C@H](O)[C@H](O)CC(=NOCc4ccccc4)[C@H]3CC[C@H]2C1=O
output: -0.0467

input: Fill in the blank: the reported composite z-score of COC(=O)CC=C[C@@H](C)[C@@H]1C=C[C@H](O)[C@@H](CO)O1 is ____.
output: -0.0717

input: Reported composite z-score for CCc1cc2c(nc1CC)CCN(CCC(C)=NOC[C@H]1O[C@H](c3ccccc3)C=C[C@@H]1Oc1ccc(OC)cc1)C2 : what is it?
output: -0.155

input: Can you share its composite z-score? I mean this compound: C=CC[C@@H]1C=C[C@H](ON=C(C)CCC(=O)OC[C@H]2O[C@H](c3ccccc3)C=C[C@@H]2Oc2ccc(OC)cc2)[C@@H](CO)O1
output: -0.177

input: # composite z-score lookup, item Cc1cc2c(nc1C)CCCCN2CC(C)ON=C[C@@H](C)[C@H](OCc1ccccc1)C(C)C (some centres undefined)
output: -0.237

input: Fill blank: measured composite z-score of the compound O=C1CCCC=C1C(O)CCOC(c1ccccc1)(c1ccccc1)c1ccccc1 (centres undefined) is ____.
output: -0.169

input: Request the reported composite z-score associated with C=CC[C@@H]1C=C[C@H](ON=C[C@@H](C)[C@H](OCc2ccccc2)C(C)C)[C@@H](CO)O1
output: -0.221

input: Which composite z-score value belongs to C[C@H]1COC(=O)[C@@H]2CCCN2C(=O)[C@@H](C)COC(=O)[C@H](Cc2ccccc2)NC1=O ?
output: -0.126

input: Given the compound CC(CCN1CCc2nc(-c3ccccc3)c(-c3ccccc3)cc2C1)=NOC[C@@H](O)[C@H]1O[C@@H]2OC(C)(C)O[C@@H]2[C@H]1O , what is its reported composite z-score?
output: -0.0291

input: I am curious: what composite z-score value has been reported for C#CCCCON=C1C[C@@H](O)[C@@H](O)[C@@H]2[C@@H]3C(=O)N(C(C)(C)C)C(=O)[C@@H]3CC[C@H]12 ?
output: -0.0272

input: Can you look up the measured composite z-score of Cc1ccc(S(=O)(=O)N[C@@H]2COC(=O)[C@@H](C)COC(=O)CC=C[C@H]2C)cc1 for me?
output: -0.162

input: // query composite z-score value for entry CCOC(=O)[C@H](CC(C)C)NC(=O)CCC1CC(OC(=O)NCCc2ccc(F)cc2)CC2(CCCC(COC(=O)NCCC(C)C)O2)O1 (some centres undefined)
output: -0.177

input: composite z-score lookup needed for COC(=O)[C@H](C)NC(=O)CCC1CC(OC(=O)NCc2ccc3c(c2)OCO3)CC2(CCCC(COC(=O)NCCc3ccccc3OC)O2)O1 (some centres undefined) , thanks.
output: -0.0646

input: Which composite z-score value belongs to C[C@@H]1CC[C@H]2C(=O)O[C@@H](COc3ccc(C(C)(C)C)cc3)CN2[C@@H]1c1ccc(Br)cc1 ?
output: -0.14

input: What measured composite z-score goes with CC(=O)OC[C@H]1O[C@H](CC=NO[C@H](C)c2cn([C@H](CO)Cc3ccccc3)nn2)C=C[C@@H]1OC(C)=O ?
output: -0.0482

input: I am curious: what composite z-score value has been reported for CC(=O)OC[C@H]1OC(ON=CC[C@@H]2C=C[C@H](OC(C)=O)[C@@H](COC(C)=O)O2)[C@H](OC(C)=O)[C@@H](OC(C)=O)[C@@H]1OC(C)=O (some centres undefined) ?
output: -0.14

input: Given the compound CCOC(=O)[C@H](CC(C)C)NC(=O)CCC1CC(OC(=O)NCCc2ccc(F)cc2)CC2(CCCC(COC(=O)NCCc3ccccc3OC)O2)O1 (some centres undefined) , what is its reported composite z-score?
output: -0.0781

input: Fill in the blank: the reported composite z-score of CC(C)CON=C1C[C@@H](O)[C@@H](O)[C@@H]2[C@@H]3C(=O)N(Cc4ccc5c(c4)OCO5)C(=O)[C@@H]3CC[C@H]12 is ____.
output: -0.115

input: Query: composite z-score; subject: COC(=O)[C@H](C)NC(=O)CCC1CC(OC(=O)NCc2cccc3ccccc23)CC2(CCCC(COC(=O)NCC(c3ccccc3)c3ccccc3)O2)O1 (some centres undefined)
output: -0.0895

input: What value of measured composite z-score is listed for COc1ccc(O[C@H]2C=C[C@@H](c3ccccc3)O[C@@H]2COC(=O)CCC(C)=NOC(C)CN2CCCc3nc(C)c(C)cc32)cc1 (some centres undefined) ?
output: -0.106

input: So what's the measured composite z-score for this one? C=CC[C@@H]1C=C[C@H](ON=C2[C@H]3CCn4c(=O)n(-c5ccccc5)c(=O)n4[C@H]3[C@H](O)[C@@H]3O[C@H]23)[C@@H](CO)O1
output: -0.101

input: Entry under review: COc1cccc([C@H]2Oc3ccc(OC)cc3C(=NOC[C@@H](O)COCc3ccco3)[C@@H]2O)c1 . Reported composite z-score?
output: -0.0942

input: So what's the measured composite z-score for this one? COc1cccc([C@@H]2Oc3ccc(OC)cc3C(=O)[C@H]2O)c1
output: -0.119

input: Value lookup for composite z-score; key = CC(CCC(=O)OC[C@H]1O[C@H](C#Cc2ccccc2)C=C[C@@H]1Oc1ccc(C)cc1)=NO[C@H](C)c1cn([C@H](CO)Cc2ccccc2)nn1
output: -0.0966

input: Field request: composite z-score | item: COc1ccc(COC(=O)NN=C2C[C@@H](O)[C@@H](O)[C@@H]3[C@@H]4C(=O)N(c5ccc(F)cc5F)C(=O)[C@@H]4CC[C@H]23)cc1
output: -0.157

input: # get_value(readout='composite z-score', item= CCOC(=O)[C@H](CC(C)C)NC(=O)CCC1CC(OC(=O)NCc2ccc3c(c2)OCO3)CC2(CCCC(COC(=O)NCC(c3ccccc3)c3ccccc3)O2)O1 (some centres undefined) )
output: -0.147

input: Given the compound CCCNC(=O)OC[C@H]1O[C@H](c2ccccc2)C=C[C@@H]1Oc1ccc(OC)cc1 , what is its reported composite z-score?
output: -0.14
